Tested on: Fibroblast
method: Multiplex assay against human fibroblast
Format: toxicity, cell-based
measurement.context: 12 h, 1 µM, compound concentration 1 uM, replicate 1
# Population Membrane Permeable-Phenotype (%) values compiled below
A bare number is not enough; add the unit after it.

# count of solved cases: 4
Cc1ccc(C(C)(O)c2nc3ccccc3s2)c(C)c1 (stereo not given): 0%
N[C@@]1(C(=O)O)CO[C@H]2[C@H](C(=O)O)[C@H]21: 0%
COc1cc(C(=O)N(CCCc2ccccc2)Cc2ccc(CC(=O)O)cc2)cc(OC)c1C: 0%
Cc1ccc(/C(=C\CN2CCCC2)c2ccccn2)cc1: 0%

--- query ---
Incoming: Give Population Membrane Permeable-Phenotype (%) for the following molecule: "O=C(NCCO)c1cccc(-c2cc(Nc3ccc(OC(F)(F)F)cc3)ncn2)c1"
Outgoing: 1%

---

Test system: HEK-293T
method: Multiplex assay against HEK293T
Type: toxicity, cell-based
measurement.context: human, 24 h, 1 µM, compound concentration 1 uM, replicate 2
recorded.metric: Population Normal (%)
// note: answer is a bare numeric in %

# count of solved cases: 4
C[C@@H]1C[C@H]2[C@@H]3CCC4=CC(=O)C=C[C@]4(C)[C@@]3(F)[C@@H](O)C[C@]2(C)[C@@]1(O)C(=O)CO [DEXAMETHASONE]: 92
COc1ccc2c(c1)C(C(=O)N(Cc1ccc(N(C)C)cc1)c1ccc(C(C)C)cc1)CCC2.Cl (stereo not given): 93
C[C@H](NC(=O)c1c(C(F)F)nn(C)c1Oc1cccc(C(F)(F)F)c1)c1ccc(C(=O)O)cc1 [PALUPIPRANT]: 95
Cc1ccc(-c2ccc(F)cc2COc2ccc(CCC(=O)O)cc2)cc1: 92

--- query ---
Incoming: Give Population Normal (%) for the following compound: "Cc1nc2ccc(Oc3ccc(F)cc3)cc2c(=O)n1C[C@H]1CCCN(C(C)C)C1.Cl"
Outgoing: 77

---

Test system: U2OS
method: Multiplex assay against U2OS
Assay type: toxicity, cell-based
measurement.context: human, 12 h, 10 µM, compound concentration 10 uM, replicate 1
# Population Healthy Nuclei (%) values compiled below
A bare number is not enough; add the unit after it.

Incoming: Give Population Healthy Nuclei (%) for the following compound: "Cc1ccc(F)cc1C(=O)Nc1ccc(C(=O)N2Cc3cccn3Cc3ccccc32)c(Cl)c1"
Outgoing: 49%

Incoming: Give Population Healthy Nuclei (%) for the following compound: "CSCC[C@H](NC=O)C(=O)N[C@@H](CC(C)C)C(=O)N[C@@H](Cc1ccccc1)C(=O)O"
Outgoing: 70%

Incoming: Give Population Healthy Nuclei (%) for the following compound: CSc1ccccc1N1CCN(CCCCCC(=O)NC2CCCc3ccccc32)CC1.Cl (centres undefined)
Outgoing: 39%

Incoming: Give Population Healthy Nuclei (%) for the following compound: Cc1ccc(C(C)(O)c2nc3ccccc3s2)c(C)c1 (centres undefined)
Outgoing: 67%

---

Test system: U2OS
method: Multiplex assay against U2OS
Format: toxicity, cell-based
measurement.context: human, 24 h, 10 µM, compound concentration 10 uM, replicate 2
recorded.metric: Population Apoptotic (%)
// note: answer is a bare numeric in %

CC[C@H]1OC(=O)[C@H](C)[C@@H](O[C@H]2C[C@@](C)(OC)[C@@H](O)[C@H](C)O2)[C@H](C)[C@@H](O[C@@H]2O[C@H](C)C[C@H](N(C)C)[C@H]2O)[C@@]2(C)CC(C)=C(O2)[C@H](C)[C@@H](O)[C@]1(C)O: 82

Incoming: Give Population Apoptotic (%) for the following molecule: "Cc1nc2ccc(Oc3ccc(F)cc3)cc2c(=O)n1C[C@H]1CCCN(C(C)C)C1.Cl"
Outgoing: 76

Incoming: Give Population Apoptotic (%) for the following molecule: C[C@@H]1C[C@H]2[C@@H]3CCC4=CC(=O)C=C[C@]4(C)[C@@]3(F)[C@@H](O)C[C@]2(C)[C@@]1(O)C(=O)CO [DEXAMETHASONE]
Outgoing: 75

Taken from ChEMBL document CHEMBL5058577.
